All figures here come from ChEMBL document CHEMBL2150996.

- measured.target: Coagulation factor X (Homo sapiens)
- assay.summary: Inhibition of human F10a activity in absence of human plasma antithrombin
Calls of active or inactive are those of the source. The rule behind the calls is not given here.
measured.endpoint: inhibition

1. O=C([O-])C1Cc2cc(OS(=O)(=O)[O-])c(OS(=O)(=O)[O-])cc2CN1C(=O)CCc1cc(OS(=O)(=O)[O-])ccc1OS(=O)(=O)[O-].[Na+].[Na+].[Na+].[Na+].[Na+] (stereo not drawn) : inactive
2. O=C([O-])C1Cc2c(OS(=O)(=O)[O-])ccc(OS(=O)(=O)[O-])c2CN1C(=O)CCCc1cc(OS(=O)(=O)[O-])ccc1OS(=O)(=O)[O-].[Na+].[Na+].[Na+].[Na+].[Na+] (stereo not drawn) : inactive
3. O=C(CCCc1cc(OS(=O)(=O)[O-])ccc1OS(=O)(=O)[O-])N1CCc2c(ccc(OS(=O)(=O)[O-])c2OS(=O)(=O)[O-])C1.[Na+].[Na+].[Na+].[Na+] : inactive
